# Test system: HeLa S3
# PROTOCOL TEXT: XTT cytotoxicity assay, HeLa S3
# Format: cell-based
# CONDITION: Homo sapiens, HeLa S3; 72 h incubation; read-out: XTT, IC50 HeLa S3
READOUT NAME: IC50

Example results:
COc1ncnc2c1c(-c1ccccc1)cn2[C@@H]1O[C@H](CO)[C@@H](O)[C@H]1O	> 20 µM
Cc1ncnc2c1c(I)cn2[C@@H]1O[C@H](CO)[C@@H](O)[C@H]1O	4.08 µM
C#Cc1cn([C@@H]2O[C@H](CO)[C@@H](O)[C@H]2O)c2ncnc(N(C)C)c12	0.81 µM
CNc1ncnc2c1ccn2[C@@H]1O[C@H](CO)[C@@H](O)[C@H]1O [RC3, reference compound]	> 20 µM
CN(C)c1ncnc2c1c(-c1cc3ccccc3o1)cn2[C@@H]1O[C@H](CO)[C@@H](O)[C@H]1O	> 20 µM

Prompt: IC50 for `Cc1ncnc2c1c(-c1ccccc1)cn2[C@@H]1O[C@H](CO)[C@@H](O)[C@H]1O` ?
Response: > 20 µM

Prompt: Now the compound `COc1ncnc2c1c(-c1cc3ccccc3o1)cn2[C@@H]1O[C@H](CO)[C@@H](O)[C@H]1O`
Response: 9.24 µM

Prompt: Now the compound `CN(C)c1ncnc2c1c(-c1ccsc1)cn2[C@@H]1O[C@H](CO)[C@@H](O)[C@H]1O`
Response: > 15 µM
